Values were extracted from the supplement of paper PMC3353916.

tested on: Sindbis virus TE/5'2J-GFP; experiment: percent infected (GFP+ in RFP+ ISG-expressing cells); higher = more infection (less antiviral activity); conditions: experiment: confirmatory screen 1; BHK/HA-Zeo (control);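 also: Interferon-defective BHK-21 derivatives, ZAP line overexpressing the rat ZAP N-terminal zinc finger domain fused to Zeocin resistance, GFP scored within live singlet TagRFP+ cells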
Hi there, I'd appreciate the recorded percent infected for every entry that follows.
Reply numerically in %, unit not repeated.

Hello, I am looking for reported percent infected with Sindbis virus TE/5'2J-GFP for MSSWSRQRPKSPGGIQPHVSRTLFLLLLLAASAWGVTLSPKDCQVFRSDHGSSISCQPPAEIPGYLPADTVHLAVEFFNLTHLPANLLQGASKLQELHLSSNGLESLSPEFLRPVPQLRVLDLTRNALTGLPPGLFQASATLDTLVLKENQLEVLEVSWLHGLKALGHLDLSGNRLRKLPPGLLANFTLLRTLDLGENQLETLPPDLLRGPLQLERLHLEGNKLQVLGKDLLLPQPDLRYLFLNGNKLARVAAGAFQGLRQLDMLDLSNNSLASVPEGLWASLGQPNWDMRDGFDISGNPWICDQNLSDLYRWLQAQKDKMFSQNDTRCAGPEAVKGQTLLAVAKSQ [LRG1] . Could you help? 95.1

Hello, I am looking for reported percent infected with Sindbis virus TE/5'2J-GFP for MRSRLLLSVAHLPTIRETTEEMLLGGPGQEPPPSPSLDDYVRSISRLAQPTSVLDKATAQGQPRPPHRPAQACRKGRPAVSLRDITARFSGQQPTLPMADTVDPLDWLFGESQEKQPSQRDLPRRTGPSAGLWGPHRQMDSSKPMGAPRGRLCEARMPGHSLARPPQDGQQSSDLRSWTFGQSAQAMASRHRPRPSSVLRTLYSHLPVIHEL [C10orf10] . Could you help? 94.8

Hello, I am looking for reported percent infected with Sindbis virus TE/5'2J-GFP for MSSAIERKSLDPSEEPVDEVLQIPPSLLTCGGCQQNIGDRYFLKAIDQYWHEDCLSCDLCGCRLGEVGRRLYYKLGRKLCRRDYLRLFGQDGLCASCDKRIRAYEMTMRVKDKVYHLECFKCAACQKHFCVGDRYLLINSDIVCEQDIYEWTKINGMI [LMO2] . Could you help? 95.7
